Task for the reader: assign each of the following compounds its reported composite z-score.
target: Torsin-1A (Homo sapiens); test: torsin A binders from cell lysate, primary screen, small-molecule microarray, wild-type, 635/667 nm (AID 1149); conditions: COS7 hTOR1A-WT lysate, 635 nm fluorescence, higher = more signal
Answers are plain numbers.

Compound	composite z-score
C=C(COC)C(=O)CC[C@@H](OC(=O)c1cccnc1)c1ccccc1OCCO	0.882

Okay, here is my list. What is composite z-score for each of these?
1. C=CCC(OC(C)=O)[C@@H]1[C@@H](N(Cc2ccc(-c3cccc(C(F)(F)F)c3)o2)C(=O)c2ccc(C)cc2)c2cc(OCCCO)ccc2N1C(=O)Cc1ccc(OC)cc1 (stereo partly specified)
2. COc1ccc([Si](C)(C)[C@@H]2[C@@H](CCn3cc([C@H](O)c4ccccc4)nn3)O[C@]3(C(=O)N(c4ccccc4)c4ccccc43)[C@H]2C)cc1
3. [N-]=[N+]=Nc1ccccc1C[C@]1(C(=O)O)N=C(c2ccc(OCCCO)cc2)O[C@H]1c1ccccc1
4. Cc1nc2cc(Br)ccc2c(=O)n1Cc1cccc(O)c1
5. C=C[C@@H](OC)[C@H](OC(=O)Nc1ccc(OC)cc1)c1ccc(OC)c(O)c1
6. NC(=O)N1C(=O)C2C(C1=O)C1C=C(CCCO)C2C(C2CC2)N1Cc1cccc(OC(F)(F)F)c1 (stereo unspecified)
7. COc1ccc(C#Cc2ccc3c(c2)[C@]2(C(=O)N3)[C@H](C(=O)N3CCCCCCC3)[C@H]3C(=O)O[C@H](c4ccccc4)[C@H](c4ccccc4)N3[C@@H]2c2ccc(O)cc2)cc1

Marked response:
[-0.425, 0.511, 1.05, 0.995, -2.5, 1.51, 0.589]

Lab note: each compound below needs its composite z-score filled in.
1. C=C(/C(=C/C[C@@H](OC(=O)c1ccncc1)c1cccc(OCCO)c1)c1cnc2ccccc2c1)C(C)C
2. [N-]=[N+]=Nc1ccccc1C[C@]1(C(=O)O)N=C(c2ccc(OCCCO)cc2)O[C@H]1c1ccccc1N=[N+]=[N-]
3. COC(=O)[C@@]1(Cc2ccc(F)cc2)[C@H]2c3cc(C(=O)N4CCCC4)n(CC4CC4)c3C[C@H]2CN1C(=O)c1ccccc1
4. Cc1ccc([C@H]2C(C(=O)O)=C[C@@H](C(C)(C)C)N2S(=O)(=O)c2ccc(C)cc2)cc1
5. C[C@]1(C(=O)O)c2ccccc2C(=O)N(Cc2ccc(OC(F)(F)F)cc2)[C@H]1c1ccc(CO)cc1
6. COC(=O)[C@@]1(Cc2ccc(F)cc2)[C@H]2c3cc(C(=O)N(C)C)n(Cc4c(CO)[nH]cc(C)c4=O)c3C[C@H]2CN1C(=O)c1ccccc1
7. O=c1cccc(-c2ccco2)o1

Marked response:
1. 0.199
2. 0.327
3. 0.111
4. 0.0948
5. 0.45
6. 0.475
7. 0.444

Exam item: Which composite z-score is reported for this compound? "COCCOC(=O)N1C(=O)[C@@]2(c3ccccc31)[C@H](c1ccccc1OCCO)N1[C@H](c3ccccc3)[C@H](c3ccccc3)OC(=O)[C@H]1[C@@H]2C(N)=O"
Marked response: -0.401

* * *

biological target: Albumin (Bos taurus) (UniProt P02769); assay: bovine serum albumin binders on microarray, profiling panel, artefact control for SMM control protein annotation, biochemical, small-molecule microarray, Alexa647 label, 635/667 nm fluorescence (AID 1118); details: BSA-A647 binding, fluorescence 635 nm, higher = more signal;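 note: score merges 667 nm emission intensity and signal-to-noise per printed compound spot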
Sequence (P02769 whole entry, looked up): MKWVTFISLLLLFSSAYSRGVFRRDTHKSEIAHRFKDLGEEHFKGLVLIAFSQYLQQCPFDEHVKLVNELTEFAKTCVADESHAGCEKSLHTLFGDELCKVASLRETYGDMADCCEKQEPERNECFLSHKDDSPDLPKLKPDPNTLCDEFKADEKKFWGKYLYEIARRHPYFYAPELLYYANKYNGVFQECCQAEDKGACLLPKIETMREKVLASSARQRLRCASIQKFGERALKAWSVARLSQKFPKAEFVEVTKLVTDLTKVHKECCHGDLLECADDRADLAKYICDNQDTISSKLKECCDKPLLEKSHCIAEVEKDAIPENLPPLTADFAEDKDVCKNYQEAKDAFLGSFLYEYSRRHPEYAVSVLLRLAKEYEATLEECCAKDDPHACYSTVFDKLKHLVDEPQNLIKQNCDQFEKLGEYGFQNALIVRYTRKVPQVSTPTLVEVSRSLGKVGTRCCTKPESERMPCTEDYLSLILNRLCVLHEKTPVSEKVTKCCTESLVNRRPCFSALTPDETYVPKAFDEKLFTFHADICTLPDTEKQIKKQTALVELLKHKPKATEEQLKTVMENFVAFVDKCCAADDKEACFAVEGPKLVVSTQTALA
Outcome measure: composite z-score
Give bare numbers.

Some solved cases for reference:
Compound	composite z-score
C=C(COC)C(=O)CC[C@H](OC(=O)c1cccnc1)c1ccc(CO)o1	0.0617
CCN(CC)c1ccc(N2CC=CC34O[C@@H]5C=CCCOC(=O)C5[C@H]3C(=O)N(CCO)[C@@H]4C2=O)cc1 (some centres undefined)	0.0715
CCCCCN1CC=CC23O[C@@H]4C=CCOC(=O)[C@@H]4[C@H]2C(=O)N(CCO)[C@@H]3C1=O (some centres undefined)	-0.141

With those in mind, consider the next compound.
Exam item: What does the data say about its composite z-score? Entry: "COCCOC(=O)N1C(=O)[C@@]2(c3ccccc31)[C@H](c1ccc(OCCO)cc1)N1[C@H](c3ccccc3)[C@H](c3ccccc3)OC(=O)[C@H]1[C@@H]2C(=O)N1CCCCCCC1"
Marked response: 0.915

* * *

experiment: basal RPMI8226 mitochondrial membrane potential changes, profiling panel, cell-based, JC-1 fluorescence, 24 h, 100 nL compound (AID 1169); settings: RPMI8226 myeloma, JC-1 mitochondrial potential fluorescence, higher = more signal; note: test concentration not given here
Outcome measure: z-score
One number for each entry.

// worked examples, z-score included
Molecule	z-score
CCOC(=O)C1=CCC(c2ccco2)N(S(=O)(=O)c2ccc(C)cc2)C1 (centres undefined)	0.733
C=CCNC(=O)[C@H]1[C@@H]2C(=O)O[C@@H](c3ccccc3)[C@@H](c3ccccc3)N2[C@@H](c2ccc(O)cc2)[C@]12C(=O)N(C(=O)OCCOC)c1ccc(C#CCC(C(=O)OC)C(=O)OC)cc12	-1.34
NC(=O)[C@@H]1[C@H]2C(=O)O[C@H](c3ccccc3)[C@H](c3ccccc3)N2[C@H](c2ccc(OCCO)cc2)[C@@]12C(=O)Nc1ccc(C#CCCO)cc12	-0.323
COc1cc(NN2C(C(O)c3ccc(I)cc3)C=CC3C(=O)N(c4ccccc4)C(=O)C32)cc(OC)c1OC (centres undefined)	-0.786
CO[C@H]1O[C@H](CO)[C@@H](OC(=O)Nc2ccc(C#N)cc2)[C@@H]2OC(=O)[C@H](Cc3cccc(Br)c3)C/C=C/C[C@@H](Cc3cccc(Br)c3)C(=O)O[C@@H]12	-0.579

Respectfully, I request z-score for each entry included below.
1. COCCCNC(=O)[C@@H]1c2ccccc2C(=O)N(C2Cc3ccccc3C2)[C@H]1c1ccc(CO)cc1
2. C=CCC(OC(C)=O)[C@@H]1[C@@H](N(Cc2cc3ccccc3o2)C(=O)c2ccc(-c3ccccc3)cc2)c2cc(OCCCO)ccc2N1C(=O)Cc1ccc(OC)cc1 (some centres undefined)
3. CC(=O)NCCCC[C@@H]1NC(=O)[C@H]2C[C@@H](C(=O)NCCCCCNC(=O)CS)[C@@H](c3cccc(OCCO)c3)N2C1=O
4. CC(CO)N1C(=O)[C@@H]2[C@H]3C(=O)OCC=C[C@H]3OC23C=CCN(c2ccc(Cl)cc2)C(=O)[C@@H]13 (some centres undefined)
5. O=C1C[C@@](C(=O)NCc2ccccc2)(c2ccc([N+](=O)[O-])cc2)[C@@H](c2ccc(CO)cc2I)N1CC12CC3CC(CC(C3)C1)C2
6. C=CCNC(=O)[C@@H]1[C@H]2C(=O)O[C@H](c3ccccc3)[C@H](c3ccccc3)N2[C@H](c2ccc(O)cc2)[C@@]12C(=O)Nc1ccc(C#CCC(C(=O)OC)C(=O)OC)cc12
7. CN1C(=O)C2C=CC(C(O)c3ccc(F)cc3)N(NC(=O)OC(C)(C)C)C2C1=O (centres undefined)

Marked response:
1: 0.217; 2: 0.738; 3: -0.428; 4: -0.818; 5: -1.03; 6: -1.25; 7: 0.247

For every item below, please supply its z-score.
1. COc1cc(C(O)C2C=CC3C(=O)N(Cc4ccccc4)C(=O)C3N2n2cnnc2)cc(OC)c1OC (centres undefined)
2. CC1(C)C(=O)C(c2ccccc2)=C2CN3C(=O)N(CCc4ccccc4)C(=O)C3(Cc3ccc(F)cc3)C=C21 (centres undefined)

Marked response:
1. 0.251
2. -0.733

* * *

Provide the reported z-score of each item.
test: HepG2 cell viability effects, profiling panel, calcein-AM fluorescence, 48 h, basal (AID 1164); conditions: higher = more signal; note: test concentration not given here
Numbers only.

Solved entries:
Compound	z-score
CN1C(=O)C2C=CC(C(O)c3ccc(I)cc3)N(Nc3ccccc3)C2C1=O (stereo unspecified)	-0.268
CC1(C)C(=O)C(c2ccccc2)=C2CN3C(=O)N(CCc4ccccc4)C(=O)C3(Cc3ccc(F)cc3)C=C21 (stereo unspecified)	0.184
COc1cc2c(cc1O)C(c1cccs1)N(Cc1sc3ccccc3c1Cl)CC2 (stereo unspecified)	-4.6
O=C(O)[C@H]1C[C@H]2C(=O)N[C@@H](Cc3ccccc3)C(=O)N2[C@H]1c1cccc(OCCO)c1	0.259
C=C(CCCC)C(=O)CC[C@@H](OC(=O)c1cccnc1)c1ccc(OCCO)cc1	0.376

For every listed record, write down its z-score.
1. COc1cc(CO)cc(I)c1O[C@H]1C=C(C(=O)NCCO)C[C@@H](NCC2CCCCC2)[C@@H]1O
2. C=CCC(OC(C)=O)[C@@H]1[C@@H](N(Cc2cccc3ccccc23)C(=O)c2cccc3ccccc23)c2cc(OCCCO)ccc2N1C(=O)c1ccc2ccccc2c1 (stereo partly specified)
3. CN(C)CCCNC(=O)[C@@H]1c2ccccc2C(=O)N(C2CCCCC2)[C@H]1c1ccc(CO)cc1
4. COCCOC(=O)N1C(=O)[C@@]2(c3cc(C#CCNC(N)=O)ccc31)[C@H](c1ccc(OCCO)cc1)N1[C@H](c3ccccc3)[C@H](c3ccccc3)OC(=O)[C@H]1[C@@H]2C(=O)NC[C@H](O)c1ccccc1
5. C=C(/C(=C/C[C@@H](OC(=O)c1ccncc1)c1cccc(OCCO)c1)c1cnc2ccccc2c1)C(C)C
6. COC(=O)[C@@]1(Cc2ccc(F)cc2)[C@H]2c3cc(C(=O)N(C)C)n(Cc4c(CO)[nH]cc(C)c4=O)c3C[C@H]2CN1C(=O)c1ccccc1

Marked response:
0.407
-0.184
0.821
-0.542
0.0856
-0.554

Please supply z-score for each of the following items, keeping them in order.
1. CC(C)CNC(=O)[C@@]1(C)c2ccccc2C(=O)N(Cc2cc(C(F)(F)F)cc(C(F)(F)F)c2)[C@H]1c1ccc(CO)cc1
2. CCc1cccc(NC(=O)O[C@H]2[C@H](OC(=O)Nc3ccccc3)[C@H](OC(=O)Nc3ccccc3)[C@@H](OC)O[C@@H]2CO)c1
3. COC(=O)C1N=C(c2ccc(OCCCO)cc2)N(c2ccccc2)O1 (stereo unspecified)
4. COC(=O)[C@@]1(Cc2ccccc2)[C@H]2c3cc(C(=O)N(C)C)n(CCn4cc([N+](=O)[O-])nc4C)c3C[C@H]2CN1C(=O)c1ccccc1
5. COCC(=C=CC[C@@H](O)c1ccc(OCCO)cc1)CCO

Marked response:
1.2
-5.14
0.634
-1.17
0.875
